The measurements presented in this section are drawn from PubChem BioAssay.

target: Epidermal growth factor receptor (Homo sapiens); test: EGFR binders on small-molecule microarrays, primary screen, biochemical, small-molecule microarray, 635 nm fluorescence (AID 1104); conditions: EGFR binding, higher = more signal;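 also: score merges 667 nm emission intensity with spot signal to noise over triplicate slides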

| molecule | composite z-score |
| --- | --- |
| COCCOC(=O)N1C(=O)[C@@]2(c3cc(C#CCCO)ccc31)[C@H](C(=O)Nc1nc3ccccc3s1)[C@H]1C(=O)O[C@H](c3ccccc3)[C@H](c3ccccc3)N1[C@@H]2c1ccccc1OCCO | 0.561 |
| O=C1OCC=C[C@H]2OC34C=CCN(c5ccc(Cl)cc5)C(=O)[C@H]3N(CCO)C(=O)[C@@H]4[C@@H]12 (stereo partly drawn) | -0.962 |
| O=C(NCCCCCNC(=O)/C(Cc1ccccc1)=N/O)OCc1ccccc1 | 0.445 |
| C=C[C@@H](COC(C)=O)N(C(=O)OC(C)(C)C)S(=O)(=O)c1ccc(Br)cc1 | 0.837 |
| C[C@H]1NC(=O)[C@@]23C(=O)N[C@@H](Cc4ccccc4)C2[C@H](C)[C@@]2(C)O[C@H]2C3/C=C/C/C=C\CNC(=O)[C@H](Cc2ccccc2)NC1=O (stereo partly drawn) | 0.199 |
| O=C1C2C=CC(C(O)c3ccc(F)cc3)N(n3cnnc3)C2C(=O)N1Cc1ccccc1 (stereo not drawn) | -0.273 |
| CCOC(=O)C1=CC[C@@H](c2cccc(Cl)c2)N(S(=O)(=O)c2ccc(C)cc2)C1 | 0.101 |
| O=C1O[C@@H](c2ccccc2)[C@@H](c2ccccc2)N2[C@@H](c3ccc(O)cc3)[C@]3(C(=O)Nc4ccc(C#CC5(O)CCCCCC5)cc43)[C@@H](C(=O)NC[C@H](O)c3ccccc3)[C@H]12 | -0.568 |
| O=C1O[C@H](c2ccccc2)[C@H](c2ccccc2)N2[C@H]1[C@@H](C(=O)O)[C@]1(C(=O)Nc3ccc(C#CC4=CCCCC4)cc31)[C@H]2c1ccc(O)cc1 | 0.23 |
| C=C(C)C1CCC(C(O)C2C=CC3C(=O)N(C)C(=O)C3N2N2CCCCC2)CC1 (stereo not drawn) | 1.16 |
| O=C(NCc1ccccc1)[C@@H]1c2ccccc2C(=O)N(Cc2ccccc2C(F)(F)F)[C@H]1c1ccc(CO)cc1 | -0.406 |
| O=C1OCC=C[C@H]2OC34C=CCN(Cn5nnc6ccccc65)C(=O)[C@H]3N(CCCO)C(=O)[C@@H]4[C@@H]12 (stereo partly drawn) | -0.577 |
| CC(CO)N1C(=O)[C@@H]2[C@H]3C(=O)OCC=C[C@H]3OC23C=CCN(CCN2CCOCC2)C(=O)[C@@H]13 (stereo partly drawn) | -0.101 |
| COC(=O)[C@@]1(Cc2ccc(OC)cc2)[C@H]2c3cc(C(=O)N4CCCC4)n(Cc4c(-c5ccccc5)noc4C)c3C[C@H]2CN1C(=O)c1ccccc1 | 0.713 |
| CCCC[C@@H]1C[C@H]1[C@@H](NC(=O)c1cccs1)c1ccc(C(F)(F)F)cc1 | -0.507 |
| O=C1NC(=O)C2C1C=CC(C(O)c1ccco1)N2Nc1ccccn1 (stereo not drawn) | 0.217 |
| COC(=O)[C@@]1(Cc2ccc(OC)cc2)[C@H]2c3cc(C(=O)N4CCCC4)n(Cc4cccc5ccccc45)c3C[C@H]2CN1C(=O)c1ccccc1 | -0.282 |
| C=C(CCCC)/C(=C/C[C@@H](OC(=O)c1ccncc1)c1ccccc1OCCO)c1cnc2ccccc2c1 | 1.02 |
| COc1ccc(-c2cc3c(c(CCc4ccccc4)n2)[Si](C(C)C)(C(C)C)OC3)cn1 | 0.168 |
| COc1ccc(CCNC(=O)[C@@]2(Sc3ccc(C)cc3)CC(=O)N(C3Cc4ccccc4C3)[C@@H]2c2ccc(CO)cc2)cc1 | 0.494 |
| COc1ccc(-c2nc(-c3ccccc3)c3c(c2C)CO[Si]3(C(C)C)C(C)C)cn1 | -0.0277 |
| C=C(COC)/C(=C/C[C@H](OC(C)=O)c1ccc(OCCO)cc1)c1cc(C(=O)OC)ccc1OC | 0.148 |
| COC(=O)c1cn(C[C@@H](Cc2ccccc2)NC(=O)N[C@H](CO)CCc2oc(C(C)=O)c(C(=O)OC)c2C(=O)OC)nn1 | 0.452 |
| COC(=O)c1c(CC[C@@H](CO)NC(=O)N2CCC[C@H]2Cn2cc(Cc3ccccc3)nn2)oc(C(C)=O)c1C(=O)OC | -0.0867 |
| O=C1O[C@H](c2ccccc2)[C@H](c2ccccc2)N2[C@H]1[C@@H](C(=O)Nc1nc3ccccc3s1)[C@]1(C(=O)Nc3ccccc31)[C@H]2c1ccc(OCCO)cc1 | 0.836 |
| C=CCOC(=O)[C@H]1[C@@H]2C(=O)O[C@@H](c3ccccc3)[C@@H](c3ccccc3)N2[C@@H](c2ccc(OCCOC(=O)[C@@H]3C[C@@H]4C(=O)N5CCC[C@H]5C(=O)N4[C@@H]3c3ccc(O)cc3)cc2)[C@]12C(=O)Nc1ccc(I)cc12 | 0.482 |
| CC(C)(C)OC(=O)CC[C@]1(C(=O)NCc2ccccc2)N=C(c2ccc(OCCCO)cc2)O[C@H]1c1ccccc1CN=[N+]=[N-] | 0.227 |
| COc1ccc([Si](C)(C)[C@@H]2[C@@H](CC(=O)N3Cc4ccccc4C[C@H]3CO)O[C@]3(C(=O)N(Cc4cccc(N5C(=O)c6cccc7cccc5c67)c4)c4ccccc43)[C@H]2C)cc1 | 0.982 |
